Cited source: patent US20250320305A1

Items are presented alongside their recorded kon.
SYSTEM UNDER TEST: T1, human CD40 extracellular domain with C-terminal His-AviTag (human, UniProt P25942 21-193)
T1 construct: not shown: C-terminal His-AviTag
T1 sequence (P25942 21-193): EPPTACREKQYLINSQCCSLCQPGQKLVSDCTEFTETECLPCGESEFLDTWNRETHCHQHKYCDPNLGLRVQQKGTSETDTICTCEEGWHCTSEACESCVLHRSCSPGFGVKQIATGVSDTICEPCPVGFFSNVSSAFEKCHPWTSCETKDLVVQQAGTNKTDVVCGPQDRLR
TEST METHOD NOTES: SPR, antibody captured, CD40 ECD analyte;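 further: biacore SPR at 25 °C in PBS-T pH 7.4, CD40 ECD analyte from 300 nM in 1:3 series, 300 s association, up to 1200 s dissociation, double-referenced, Langmuir 1:1 fit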

BINDER	U	kon
P1AE0997, humanized anti-CD40 antibody VH1c/VL1a, huIgG1_LALA_PG (antibody, V domains shown, huIgG1 with effector silent Fc (P329G, L234A, L235A)) VH: QVQLVQSGAEVKKPGASVKVSCKASGYSFTGYYIHWVRQAPGQSLEWMGRVIPNAGGTSYNQKFKGRVTLTVDKSISTAYMELSRLRSDDTAVYYCAREGIYWWGHGTTVTVSS VL: DIVMTQTPLSLSVTPGQPASISCRSSQSLVHSNGNTFLHWYLQKPGQSPQLLIYTVSNRFSGVPDRFSGSGSGTDFTLKISRVEAEDVGVYFCSQTTHVPWTFGGGTKVEIK	M⁻¹ s⁻¹	2.59e+06
P1AE1003, humanized anti-CD40 antibody VH1b/VL1b, huIgG1_LALA_PG (antibody, V domains shown, huIgG1 with effector silent Fc (P329G, L234A, L235A)) VH: QVQLVQSGAEVKKPGASVKVSCKASGYSFTGYYIHWVRQAPGKSLEWMGRVIPNAGGTSYNQKFKGRVTLTVDKSISTAYMELSRLRSDDTAVYYCAREGIYWWGQGTTVTVSS VL: DIVVTQTPLSLSVTPGQPASISCRSSQSLVHSNGNTFLHWYLQKPGQSPQLLIYTVSNRFSGVPDRFSGSGSGTDFTLKISRVEAEDVGVYFCSQTTHVPWTFGGGTKVEIK	M⁻¹ s⁻¹	2.46e+06
P1AE0996, humanized anti-CD40 antibody VH1a/VL1d, huIgG1_LALA_PG (antibody, V domains shown, huIgG1 with effector silent Fc (P329G, L234A, L235A)) VH: QVQLVQSGAEVKKPGASVKVSCKASGYSFTGYYIHWVRQAPGQSLEWMGRVIPNAGGTSYNQKFKGRVTLTVDKSISTAYMELSRLRSDDTAVYYCAREGIYWWGQGTTVTVSS VL: DVVVTQTPLSLSVTPGQPASISCRSSQSLVHSNGNTFLHWYLQKPGQSPQLLIYTVSNRFSGVPDRFSGSGSGTDFTLKISRVEAEDVGVYFCSQTTHVPWTFGGGTKLEIK	M⁻¹ s⁻¹	2.59e+06
